target: full-length human GLP-1R with an N-terminal FLAG tag (human, UniProt P43220 24-463); experiment: cell-based or functional assay
Starred links: 1 amine or outer side, 2 acyl side, 3 side chain; linkers in the order of their positions; H or OH if unused. Non-standard residues stand in square brackets, D forms with d. Groups on a side chain read outwards from the residue. No end group written: not given here. *: point of attachment. C15 diacid = O=C(O)CCCCCCCCCCCCCC(=O)*; γGlu = O=C(O)[C@H](CCC(=O)[*:2])N[*:1]; NMeY = CN[C@@H](Cc1ccc(O)cc1)C(=O)O; AEEA = NCCOCCOCC(=O)O; Aib = CC(C)(N)C(=O)O

binder | display-unit | Human GLP1R cAMP HEK293T EC50
[NMeY][Aib]EGTFISDYSIAKDR[Aib]AQ[Aib]NFVNWLLAQRPSSGAPPPS-NH2 (not fully specified (residue 14)) [Compound 77] | µM | 0.331
Me-Y[Aib]EGTFISDYSIALDR[Aib]AQ[Aib]K([AEEA-γGlu-γGlu-γGlu-C15 diacid])FVNWLLAQK-NH2 [Compound 24] | µM | 0.0169
Y[Aib]EGTFISDYSIALDR[Aib]AQ[Aib]NFVNWLLAQK([AEEA-γGlu-γGlu-γGlu-C15 diacid]) (not fully specified (residue 1, N-terminus); also: Me-Tyr methyl position not given here) [Compound 43] | µM | 0.174
YXEGTFISDYSIALDKXHQXDFVNWLLAXK (not fully specified; Me-Tyr1; Aib 2,17,20; Km29 = Lys(2OEGgE-C15DA); position 21 printed 'O' in Table 3; C-term OH) [Compound 36] | µM | 0.0251
[NMeY][Aib]EGTFISDYSI[Aib]LDR[Aib]KQ[Aib]DFVNWLLAQR-NH2 (not fully specified (residue 18)) [Compound 117] | µM | 1
